- measurement-target: Urokinase (sc-urokinase) (Homo sapiens, UniProt P00749)
- Construct: purchased Ribosepharm GmbH, Haan, Germany
- experiment-summary: In vitro inhibition of urokinase (chromogenic substrate, Dixon Ki)
- Assay type: biochemical
- details: read-out: Ki Urokinase
pKi: −log10 of the molar value.
quantity-kind: pKi

> print(dat)
                                   molecule                        measurement.target  quantity.kind  number
1  CCOC(=O)N1CCN(C(=O)[C@H](Cc2cccc(C(=N)N)c2)NS(=O)(=O)c2c(C(C)C)cc(C(C)C)cc2C(C)C)CC1.Cl [uPA inhibitor, hydrochloride]  Urokinase (sc-urokinase) (Homo sapiens, UniProt P00749)            pKi    6.39

----------
- measurement-target: Factor XIIa (Homo sapiens, UniProt P00748)
- Sequence (P00748 373-615 limits assumed): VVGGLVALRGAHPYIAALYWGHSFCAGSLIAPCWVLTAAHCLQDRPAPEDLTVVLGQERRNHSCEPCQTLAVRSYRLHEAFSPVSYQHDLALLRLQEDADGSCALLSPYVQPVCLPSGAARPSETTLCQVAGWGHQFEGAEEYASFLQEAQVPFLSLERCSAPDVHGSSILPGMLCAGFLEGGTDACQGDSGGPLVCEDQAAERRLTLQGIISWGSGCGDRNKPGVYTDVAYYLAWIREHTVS
pKi: −log10 of the molar value.
quantity-kind: pKi

> print(dat)
                                   compound  number
1  CCOC(=O)N1CCN(C(=O)[C@H](Cc2cccc(C(=N)N)c2)NS(=O)(=O)c2c(C(C)C)cc(C(C)C)cc2C(C)C)CC1.Cl [uPA inhibitor, hydrochloride]    4.89

----------
- measurement-target: Urokinase (sc-urokinase) (Homo sapiens)
- Construct: purchased Ribosepharm GmbH, Haan, Germany
- experiment-summary: In vitro inhibition of urokinase (chromogenic substrate, Dixon Ki)
- Type: biochemical
- details: in vitro inhibition of urokinase, 25° C, pH 8.0, 5% ethanol; read-out: Ki
- Procedure: To determine the inhibitory activity, 200 μl of Tris buffer (0.05 mol/l, containing the inhibitor, 0.154 mol/l NaCl, 5% ethanol pH 8.0), 25 μl of substrate (Pefachrome UK or Bz-βAla-Gly-Arg-pNA in H2O; Pentapharm Ltd., Basle, Switzerland) and 50 μl of sc-urokinase (Ribosepharm GmbH, Haan, Germany) were incubated at 25° C. […] Ki values were determined according to Dixon by linear regression using a computer program. […]
pKi: −log10 of the molar value.
quantity-kind: pKi

molecule	quantity-kind	number
CCOC(=O)N1CCN(C(=O)C(Cc2cccc(C(=N)N)c2)NS(=O)(=O)c2c(C(C)C)cc(C(C)C)cc2C(C)C)CC1.Cl (centres unmarked) [D,L, hydrochloride]	pKi	6.02
CCOC(=O)N1CCN(C(=O)[C@H](Cc2cccc(C(=N)N)c2)NS(=O)(=O)c2c(C(C)C)cc(C(C)C)cc2C(C)C)CC1.Cl [uPA inhibitor, hydrochloride]	pKi	6.39

----------
- measurement-target: Glandular kallikrein (Homo sapiens)
- Sequence (P06870 25-262): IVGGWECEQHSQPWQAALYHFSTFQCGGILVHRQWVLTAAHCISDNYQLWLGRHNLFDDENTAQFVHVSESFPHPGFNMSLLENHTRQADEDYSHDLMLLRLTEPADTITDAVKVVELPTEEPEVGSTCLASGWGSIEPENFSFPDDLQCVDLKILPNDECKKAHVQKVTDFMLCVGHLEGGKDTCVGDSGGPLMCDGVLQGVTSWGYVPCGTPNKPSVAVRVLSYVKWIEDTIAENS
quantity-kind: Ki

> print(dat)
                                   compound  result
1  CCOC(=O)N1CCN(C(=O)[C@H](Cc2cccc(C(=N)N)c2)NS(=O)(=O)c2c(C(C)C)cc(C(C)C)cc2C(C)C)CC1.Cl [uPA inhibitor, hydrochloride]  > 1 mM

----------
- measurement-target: UniProtKB P00747
- Sequence (P00747 581-810 limits assumed, species assumed): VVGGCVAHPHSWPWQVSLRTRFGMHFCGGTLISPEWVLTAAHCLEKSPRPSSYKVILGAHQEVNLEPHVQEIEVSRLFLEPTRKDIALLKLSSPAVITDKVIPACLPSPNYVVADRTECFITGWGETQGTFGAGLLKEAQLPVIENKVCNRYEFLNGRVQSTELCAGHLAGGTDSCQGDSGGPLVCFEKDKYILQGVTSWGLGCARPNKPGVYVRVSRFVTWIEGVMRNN
- Sequence (P00747 97-580 partner limits assumed, species assumed): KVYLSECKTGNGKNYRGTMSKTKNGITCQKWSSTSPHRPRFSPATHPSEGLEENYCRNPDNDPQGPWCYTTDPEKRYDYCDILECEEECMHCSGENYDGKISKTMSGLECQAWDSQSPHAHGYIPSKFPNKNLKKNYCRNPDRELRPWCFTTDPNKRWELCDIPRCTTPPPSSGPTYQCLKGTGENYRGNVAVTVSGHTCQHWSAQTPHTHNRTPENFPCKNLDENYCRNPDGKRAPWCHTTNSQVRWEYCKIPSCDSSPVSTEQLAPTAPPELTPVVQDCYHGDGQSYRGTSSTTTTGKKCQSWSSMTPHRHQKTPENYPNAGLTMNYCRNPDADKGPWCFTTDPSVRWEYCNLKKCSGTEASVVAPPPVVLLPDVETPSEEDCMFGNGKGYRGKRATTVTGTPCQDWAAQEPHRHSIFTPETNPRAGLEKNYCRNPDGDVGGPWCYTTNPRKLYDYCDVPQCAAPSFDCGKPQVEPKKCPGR
pKi: −log10 of the molar value.
quantity-kind: pKi

> print(dat)
                                   molecule  quantity.kind  number
1  CCOC(=O)N1CCN(C(=O)[C@H](Cc2cccc(C(=N)N)c2)NS(=O)(=O)c2c(C(C)C)cc(C(C)C)cc2C(C)C)CC1.Cl [uPA inhibitor, hydrochloride]            pKi    6.41

----------
- measurement-target: Trypsin (Bos taurus, UniProt P00760)
- Sequence (P00760 24-246): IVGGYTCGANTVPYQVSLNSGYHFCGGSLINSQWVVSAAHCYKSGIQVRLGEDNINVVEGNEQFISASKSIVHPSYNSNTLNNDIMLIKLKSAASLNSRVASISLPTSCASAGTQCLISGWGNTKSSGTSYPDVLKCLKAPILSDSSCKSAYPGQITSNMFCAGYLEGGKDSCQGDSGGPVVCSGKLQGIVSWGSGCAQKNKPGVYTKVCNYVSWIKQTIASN
quantity-kind: Ki (µM)

> print(dat)
                                   compound  quantity.kind  number
1  CCOC(=O)N1CCN(C(=O)[C@H](Cc2cccc(C(=N)N)c2)NS(=O)(=O)c2c(C(C)C)cc(C(C)C)cc2C(C)C)CC1.Cl [uPA inhibitor, hydrochloride]             Ki   0.037

----------
- measurement-target: Tryptase (Homo sapiens)
- Sequence (Q15661 31-275): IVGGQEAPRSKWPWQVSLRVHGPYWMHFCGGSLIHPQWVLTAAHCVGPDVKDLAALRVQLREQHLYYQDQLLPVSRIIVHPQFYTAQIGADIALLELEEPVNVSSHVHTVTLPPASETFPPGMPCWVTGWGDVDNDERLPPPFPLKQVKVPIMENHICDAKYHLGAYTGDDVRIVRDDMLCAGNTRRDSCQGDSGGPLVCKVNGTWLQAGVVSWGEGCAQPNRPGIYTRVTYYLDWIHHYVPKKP
quantity-kind: Ki (µM)

> print(dat)
                                   molecule  quantity.kind  number
1  CCOC(=O)N1CCN(C(=O)[C@H](Cc2cccc(C(=N)N)c2)NS(=O)(=O)c2c(C(C)C)cc(C(C)C)cc2C(C)C)CC1.Cl [uPA inhibitor, hydrochloride]             Ki     6.3
